Source of measurements: patent US9133206B2

Please respond with reported pEC50 for every item in the list.
- Tested on: SK-N-SH human neuroblastoma cells
- assay explanation: Serum Deprivation/JC-1 Mitochondrial Membrane Potential (MMP) Assay
- Format: cell-based
- assay conditions: Homo sapiens, SK-N-SH, 18 h, serum deprivation ~18 hours, JC-1 ratio normalized to peak value for 10 μM dimebolin, single curve fit to mean data of n=2-3
Lab note — pEC50 values are minus log10 of concentrations in M.

Please provide the recorded pEC50 for CC1(C)C(C(=O)N2CCC3CN(Cc4ccccc4)CCN3c3ncccc32)C1(C)C (stereo not shown) , tested on SK-N-SH human neuroblastoma cells.
5.44

Notebook entry, SK-N-SH human neuroblastoma cells assay: pEC50 of CC(C)(C)OC(=O)N1CCN2c3ccccc3CN(Cc3ccc(Br)cc3)CC2C1 (stereo not shown) = ?
5.32

Test system SK-N-SH human neuroblastoma cells; read-out pEC50; what value for O=C(NCCc1ccccn1)N1Cc2ccccc2N2CCN(Cc3ccccc3)CC2C1 (stereo not shown) ?
5.74

Value wanted: pEC50 (SK-N-SH human neuroblastoma cells) of entry O=C(c1cnccn1)N1Cc2ccccc2N2CCN(Cc3ccccc3)CC2C1 (stereo not shown)
5.95

Short answer please: pEC50, SK-N-SH human neuroblastoma cells, entry CC(C)(C)OC(=O)N1CCN2c3ccccc3CNC(=O)C2C1 (stereo not shown)
5.02

Identify the measured pEC50 of Fc1ccc(CN2CCN3c4ccccc4CN(Cc4ccc(Br)cc4)CC3C2)cc1 (stereo not shown) for SK-N-SH human neuroblastoma cells.
5.29

Form field: pEC50 recorded for O=C(NCCc1ccncc1)N1Cc2ccccc2N2CCN(Cc3ccccc3)CC2C1 (stereo not shown) with SK-N-SH human neuroblastoma cells (enter value)
5.51

Could you share what pEC50 was measured for O=C(NC1CCC1)N1Cc2ccccc2N2CCN(Cc3ccccc3)CC2C1 (stereo not shown) , tested on SK-N-SH human neuroblastoma cells?
6.09

# value lookup — system SK-N-SH human neuroblastoma cells, readout pEC50, item COc1ccc(CN2Cc3ccccc3N3CCN(Cc4ccccc4)CC3C2)cc1 (stereo not shown)
5.45

Given the entry Clc1ccc(CCN2Cc3ccccc3N3CCN(Cc4ccccc4)CC3C2)cn1 (stereo not shown) , what pEC50 was observed with SK-N-SH human neuroblastoma cells?
5.71

Record c1ccc(CN2CCN3c4ncccc4NCCC3C2)cc1 (stereo not shown) : what is its pEC50 with SK-N-SH human neuroblastoma cells?
5.22

// lookup pEC50 | system=SK-N-SH human neuroblastoma cells | key= c1ccc(CN2CCN3c4ccccc4N(Cc4ccncc4)CCC3C2)cc1 (stereo not shown)
5.74

Lab request: please report pEC50 under test system SK-N-SH human neuroblastoma cells for O=C(c1ccoc1)N1Cc2ccccc2N2CCN(Cc3ccccc3)CC2C1 (stereo not shown)
5.56

Form: Entry = O=C(c1ccncc1)N1Cc2ccccc2N2CCN(Cc3ccccc3)CC2C1 (stereo not shown) | System = SK-N-SH human neuroblastoma cells | pEC50 = ____
5.25

Requested read-out pEC50, target or system SK-N-SH human neuroblastoma cells, entry Fc1ccc(CN2CCN3c4ccccc4CN(Cc4ccc(Br)cc4)C[C@@H]3C2)cc1 (single isomer, unassigned)
5.44

SK-N-SH human neuroblastoma cells / pEC50 / CN1CCC2CN(Cc3ccccc3)CCN2c2ncccc21 (stereo not shown) : value?
5.00

Recall the recorded pEC50 for FC(F)(F)c1ccc(CN2Cc3ccccc3N3CCN(Cc4ccccc4)CC3C2)cc1 (stereo not shown) with SK-N-SH human neuroblastoma cells and state it.
5.21

Report pEC50 for O=C1C2CN(Cc3ccc(F)cc3)CCN2c2ccccc2CN1Cc1ccc(Br)cc1 (stereo not shown) tested on SK-N-SH human neuroblastoma cells.
5.37

Under SK-N-SH human neuroblastoma cells: pEC50 value of Cn1cccc1C(=O)N1Cc2ccccc2N2CCN(Cc3ccccc3)CC2C1 (stereo not shown) ?
5.60

# returns recorded pEC50 (system: SK-N-SH human neuroblastoma cells) for O=C(N1CCOCC1)N1Cc2ccccc2N2CCN(Cc3ccc(F)cc3)CC2C1 (stereo not shown)
5.15

Request body: readout pEC50, system SK-N-SH human neuroblastoma cells, query O=C(c1ccccc1)N1CCN2c3ccccc3CN(C(=O)N3CCOCC3)CC2C1 (stereo not shown) . Return the value.
5.03

# get_value(readout= pEC50, system= SK-N-SH human neuroblastoma cells) for FC(F)(F)c1ccc(CN2Cc3ccccc3N3CCN(Cc4ccccc4)CC3C2)cn1 (stereo not shown)
5.54

Fill in the recorded pEC50 for this molecule, with SK-N-SH human neuroblastoma cells as test system: Fc1ccc(CN2Cc3ccccc3N3CCN(Cc4ccccc4)CC3C2)cc1 (stereo not shown)
5.35
